Measured IC50, listed per entry.
- Tested on: GM3
- measurement.notes: GM3 Elisa assay
- Assay type: cell-based
- condition.summary: Table 3 (IC 50 Values); B16-FO cells; read-out: IC50_uM_Mean

| compound | IC50 |
| --- | --- |
| COc1ccc(C(=O)CCCCC(=O)N[C@H](CN2CCCC2)[C@H](O)c2ccc(-c3ccccc3)cc2)cc1 [Compound 694] | 100 to 1000 nM |
| O=C(CCCCC(=O)C1CCOCC1)N[C@H](CN1CCCC1)[C@H](O)c1ccc2c(c1)OCCO2 [Compound 556] | 3000 to 10000 nM |
| CCCCOc1ccc([C@@H](O)[C@@H](CN2CC[C@H](O)C2)NC(=O)CCCCCOCCF)cc1 [Compound 661] | 1000 to 3000 nM |

Now look at this entry.
Input line: Given the entry COc1ccc(OCCC(=O)N[C@H](CN2CCCC2)[C@H](O)c2ccc(OC)c(F)c2)cc1 [Compound 341] , report its measured IC50.
Output line: ≤ 100 nM

----------
- Test system: GM3
- measurement.notes: GM3 Elisa assay
- Type: cell-based
- condition.summary: Table 3 (IC 50 Values); B16-FO cells; read-out: IC50_uM_Mean
pIC50: −log10 of the molar value.
property.name: pIC50

Input line: Given the entry `O=C(CCCOc1ccc(F)cc1)N[C@H](CN1CC[C@@H](F)C1)[C@H](O)c1ccc2c(c1)OCCO2` , report its measured pIC50.
Output line: 6.00 to 7.00

Input line: Given the entry `COc1ccc(OCCC(=O)N[C@H](CN2CC[C@H](c3ccccc3)C2)[C@H](O)c2ccc3c(c2)OCCO3)cc1` , report its measured pIC50.
Output line: 5.00 to 5.52

Input line: Given the entry `COc1ccc(C(=O)CCCCC(=O)N[C@H](CN2CCCC2)[C@H](O)c2ccc(OCC3CCC3)cc2)cc1` , report its measured pIC50.
Output line: ≥ 7.00

Input line: Given the entry `COc1ccc(C(=O)CCCCCC(=O)N[C@H](CN2CCCC2)[C@H](O)c2ccc(C(F)(F)F)cc2)cc1` , report its measured pIC50.
Output line: 5.52 to 6.00

Input line: Given the entry CC(O)(CCCCCC(=O)N[C@H](CN1CCCC1)[C@H](O)c1ccc2c(c1)OCCO2)C1CCCC1 (stereo partly shown) , report its measured pIC50.
Output line: 6.00 to 7.00

Input line: Given the entry `COc1ccc(C(=O)CCCCCC(=O)N[C@H](CCN2CCCC2)[C@H](O)c2ccc3c(c2)OCCO3)cc1` , report its measured pIC50.
Output line: 5.00 to 5.52

Input line: Given the entry `O=C(CCCCC1CCOCC1)N[C@H](CN1CCCC1)[C@H](O)c1ccc2c(c1)OCCO2` , report its measured pIC50.
Output line: 6.00 to 7.00

----------
- Test system: GM3
- measurement.notes: GM3 Elisa assay
- Assay type: cell-based
- condition.summary: Table 3 (IC 50 Values); B16-FO cells; read-out: IC50_uM_Mean
Measured IC50, listed per entry.

| molecule | IC50 |
| --- | --- |
| CCCCCCOc1ccc([C@@H](O)[C@@H](CN2CC[C@H](O)C2)NC(=O)CCCCCC(=O)c2ccc(OC)cc2)cc1 | ≤ 100 nM |
| O=C(Cc1ccc(OC(F)(F)F)cc1)N[C@H](CN1CCCC1)[C@H](O)c1ccc(C(F)(F)F)cc1 | 3000 to 10000 nM |
| CCCCCCCC(=O)N[C@H](CN1CCC[C@H]1C(F)(F)F)[C@H](O)c1ccc2c(c1)OCCO2 | 3000 to 10000 nM |
| COc1ccc(OCCC(=O)N[C@H](CN2CC(F)(F)C2)[C@H](O)c2ccc3c(c2)OCCO3)cc1 | 3000 to 10000 nM |
| O=C(CCCCCC(=O)c1ccc(F)cc1)N[C@H](CN1CCCC1)[C@H](O)c1ccc2c(c1)OCCO2 | ≤ 100 nM |

Now look at this entry.
Input line: Param readout= IC50; system= GM3; entry= `CCCCCCCC(=O)N[C@H](CN1CCC(C)CC1)[C@H](O)c1ccc2c(c1)OCCO2` ; returns value.
Output line: 3000 to 10000 nM
